Below: a set of entries, each annotated with reported kon.
- STUDY_TARGET: T1, human renalase-1 (Homo sapiens, UniProt Q5VYX0 18-342, limits assumed)
- T1 construct: Whole entry named for renalase-1 (Glu at position 37); also called R1; HuRenalase-1
- T1 sequence (Q5VYX0 18-342 limits assumed): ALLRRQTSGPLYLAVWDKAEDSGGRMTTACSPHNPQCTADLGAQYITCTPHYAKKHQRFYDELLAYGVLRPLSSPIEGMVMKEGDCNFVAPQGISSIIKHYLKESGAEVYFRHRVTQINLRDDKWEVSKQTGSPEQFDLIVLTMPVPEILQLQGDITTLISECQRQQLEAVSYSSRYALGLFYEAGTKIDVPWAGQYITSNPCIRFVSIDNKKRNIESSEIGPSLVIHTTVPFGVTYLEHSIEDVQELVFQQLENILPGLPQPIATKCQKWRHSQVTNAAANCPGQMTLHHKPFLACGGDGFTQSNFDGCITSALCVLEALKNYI
- ASSAY: SPR, Biacore T100; biotinylated antibody captured on streptavidin chip, renalase-1 in solution

BINDER	kon / M⁻¹ s⁻¹
anti-renalase monoclonal antibody 1F-26-1 (antibody, V domains shown, Rabbit monoclonal IgG raised against peptide 1F; Biotinylated in the Biacore study; also called Bio-1F 26-1) VH: QSVKESEGGLFKPTDTLTLTCTVSGFSLSSYGVTWVRQAPGNGLEWIGLIGDRGTTFYASWAKSRSTITRNTNLNTVTLKMTRLTAADTATYFCARGSGYGARIWGPGTLVTVSS VL: AQVLTQTPSPVSAAVGGTVTINCQSSQSVYKNNYLAWYQQKPGQPPKLLIYETSKLASGVPPRFSGSGSGTQFTLTISSVQCDDAATYYCQGGYSGVDFMAFGGGTEVVVKG	45300
anti-renalase monoclonal antibody 1D-28-4 (antibody, V domains shown, Rabbit monoclonal IgG raised against peptide 1D (RP-220); also called m28-RNLS; Bio-1D 28-4) VH: QSVEESGGRLVTPGTPLTLTCTVSGFSLSSFAVGWVRQAPGKGLEYIGIISSVGITRYASWAAGRFTISKTSTTVDLKITSPTTEDTATYFCARYGYSGDVNRLDLWGQGTLVTVSS VL: AQVLTQTASPVSAAVGGTVTINCQASQSVYDNNNLAWYQQKPGQPPKQLIYGASTLASGVSSRFKGSGSGTQFTLTISGVQCDDAATYYCLGEFSCSSADCFAFGGGTEVVVKG	64700
anti-renalase monoclonal antibody 1D-37-10 (antibody, V domains shown, Rabbit monoclonal IgG raised against peptide 1D (RP-220); Biotinylated in the Biacore study; also called m37-RNLS; Bio-1D 37-10) VH: QSVEESGGRLVTPGGSLTLTCTVSGFSLSDYAIIWVRQAPGKGLEYIAIIGSSGDTFYATWAKGRFTISKTSTTVDLKMTSLTAADTATYFCAPRYAGTTDYHDAFDPWGPGTLVTVSS VL: EVVMTQTPASMEAPMGGTVTIKCQASQNIYNYLSWYQQKPGQPPKLLVYKASTLTSGVPSRFKGSGSGTQFTLTISDLECADAATYYCQINYSIYNHYNIIFGGGTEVVVKG	17500
anti-renalase monoclonal antibody 1F-42-7 (antibody, V domains shown, Rabbit monoclonal IgG raised against peptide 1F; Biotinylated in the Biacore study; also called Bio-1F 42-7) VH: QSVKESEGGLFKPTDTLTLTCTVSGFSLTTYGVTWVRQAPGNGLEWIGLIGDRGTTYYASWVNGRSTITRNTNLNTVTLKMTRLTAADTATYFCARGSGYGARIWGPGTLVTVAS VL: AQVLTQTPSPMSAALGGTVTINCQSSQTVYNNNYLSWYQQKPGQPPKLLIYETSKLSSGVPPRFSGSGSGTQFTLTISSVQCDDAATYYCQGGYSGVDFMAFGGGTEVVVKG	39300
